Hello, the source for this data is patent US12577248B2, in case you need it.

Give measured pIC50 for each item. Keep answers brief.
Biological target: SYK kinase (Homo sapiens, UniProt P43405)
Test: SYK kinase assay (HTRF KinEASE-TK)
Assay type: biochemical
Details: class symbols, read-out: Syk inhibition IC50
pIC50: −log10 of the molar value.

Lab note: measured pIC50 of "O=C(O)c1ccc(NC(=O)c2cccc(-c3cn4ncnc4c(Nc4ccc(N5CCOCC5)cc4)n3)c2)cc1" was ≥ 7.30

Query "O=S1(=O)CCN(c2ccc(Nc3nc(-c4ccc5cn[nH]c5c4)cn4ncnc34)cc2)CC1" yields pIC50 of ≥ 7.30

Kindly note the recorded pIC50 for "COc1cc(Nc2nc(-c3ccc4[nH]ccc4c3)cn3cnnc23)ccc1N1CCOCC1" , which is < 5.30

Input "c1nc2c(Nc3ccc(N4CCOCC4)cc3)nc(-c3ccc4cc[nH]c4c3)cn2n1" . Output pIC50: ≥ 7.30

The measured pIC50 associated with "COc1cc(Nc2nc(-c3cnc4c(c3)OC(C)(C)C(=O)N4)cn3ncnc23)ccc1N1CCOCC1" reads 6.30 to 7.30
